What TGI was measured for each of the following?
# Tested on: KM12 colon
# assay.remarks: NCI tumour cell line growth inhibition, 48 h

Provide TGI values for the following items, in order.
1. CCN(CC)CCCC(C)Nc1ccnc2cc3ccccc3cc12 (stereo unspecified)
2. Cc1cc(Cl)cc2c(N=Nc3ccccc3[N+](=O)[O-])c(O)[nH]c12
3. CC1=NOC2(C1)C(=O)Nc1ccccc12 (stereo unspecified)

1. 33.8 µM
2. > 100 µM
3. > 100 µM

* * *

# Tested on: HL-60(TB) leukemia
# assay.remarks: NCI tumour cell line growth inhibition, 48 h
assay.readout: log10(TGI) (log10 of the value in µM)
Transform log10 | Measure TGI | Unit µM

Here is how some compounds turned out for log10(TGI).
Nc1ncnc2c1ncn2Cc1ccc(C23CC4CC(CC(C4)C2)C3)c(OCc2cc(F)c(F)cc2F)c1 :: 1.03
CCCCCc1nc2c(c3c1CCCC3)CCCC2 :: 1.47

Provide log10(TGI) values for the following items, in order.
1. CCN(CC)c1ccc(/C=C2/C[N+](C)(C)C/C(=C/c3ccc(N(CC)CC)cc3)C2=O)cc1
2. COc1cc2c(cc1OCCCCCOc1cc3c(cc1OC)C(=O)N1CC(F)C[C@H]1C=N3)N=C[C@@H]1CC(F)CN1C2=O (some centres undefined)
3. COC(=O)[C@H](Cc1ccccc1)NC(=O)N1CCCN(C(=O)N[C@@H](Cc2ccccc2)C(=O)OC)CCCN(C(=O)N[C@@H](Cc2ccccc2)C(=O)OC)CCC1
4. N#Cc1ncc(-c2ccc(C(F)(F)F)cc2)c(NCc2cc(C(F)(F)F)cc(C(F)(F)F)c2)n1
5. CC(=O)Nc1ccc(/C=C/C(=O)c2ccccc2)cc1
6. CC(=O)Oc1c(C)c2c(O)c3c1C1=C(OCOC1=C(C)C3=O)/C(C)=C\C(C)(O)C(O)C(C)C(O)C1C(=O)OC(C(C)C1O)C(C)(O)/C=C/C=C(C)C(=O)N2 (centres undefined)
7. NC(=O)C#CC#CC#CCO

1: 0.33; 2: 0.38; 3: 1.84; 4: 0.76; 5: 1.91; 6: 0.86; 7: 0.48
